- Tested on: HT-1080
- METHOD SUMMARY: Cytotoxicity against human HT1080 cells after 72 hrs by MTT assay
- Type: functional, cell-based
- EXPERIMENTAL PARAMETERS: HT-1080, 72 h
ATTRIBUTE MEASURED: pIC50
Hey, just a heads up that pIC50 is the negative log base 10 of the concentration in molar.

COc1cc2cc(Cc3ccc(O)cc3)c(=O)oc2cc1O = 4.39
COc1cc(O)c(C)c2c1CC[C@H](c1ccc(O)cc1)O2 = 4.43
COc1cc(O)cc(OC)c1CCC(=O)c1ccc(O)cc1 = 4.17

Record for Cc1c(O)ccc2c1O[C@@H](c1ccc(O)cc1)CC2 under target or system HT-1080: pIC50 reported as 4.62

Record for O=C1C[C@@H](c2ccccc2)Oc2cc(O)cc(O)c21 under target or system HT-1080: pIC50 reported as 4.14
